Sourced from PubChem BioAssay (NCI)

tested on: TK-10 renal; experiment: NCI tumour cell line growth inhibition, 48 h; in the data active = GI50 below about 0.43 µM; inactive = the rest
# output must be one of active, inactive

Example entries begin here.
>  <molecule>
O=C(/C=C/C12c3ccccc3C(c3ccccc31)C1C(=O)NC(=O)C12)c1ccncc1 (stereo not given)

>  <target-of-assay>
TK-10 renal

>  <classification>
inactive

$$$$
>  <molecule>
O=C(Nc1ccccc1OC(F)(F)F)Nc1n[nH]c2ccccc12

>  <target-of-assay>
TK-10 renal

>  <classification>
inactive

$$$$
>  <molecule>
COc1cc(CNc2cnc3cc(N)cc(N)c3n2)cc(OC)c1

>  <target-of-assay>
TK-10 renal

>  <classification>
inactive

$$$$
>  <molecule>
NC(Cc1c[nH]c2c(O)cccc12)C(=O)O (stereo not given)

>  <target-of-assay>
TK-10 renal

>  <classification>
inactive

$$$$
>  <molecule>
NC(=O)c1cccc2cn(-c3ccc([C@@H]4CCCNC4)cc3)nc12

>  <target-of-assay>
TK-10 renal

>  <classification>
inactive

$$$$

Problem: What did this assay record as the result for NC(=O)c1sc(-n2cnc3ccccc32)cc1OCc1ccccc1Br ?
Result: inactive

Problem: What did this assay record as the result for CC/C=C\CCC/C=C1/C(=O)C=C[C@@H]1C/C=C\CCCC(=O)OC ?
Result: inactive

Problem: What did this assay record as the result for O=C(Nc1ccccc1)NS(=O)(=O)c1ccc(-n2nc3c(c2-c2cccs2)Cc2ccccc2-3)cc1 ?
Result: inactive

Problem: What did this assay record as the result for CC[C@@]1(O)C[C@H](OC2CC(N(C)C)C(O)C(C)O2)c2c(O)c3c(c(O)c2[C@H]1OC1CC(N(C)C)C(O)C(C)O1)C(=O)c1cccc(O)c1C3=O (stereo not given in full) ?
Result: active

Problem: What did this assay record as the result for CCCNC1=C2CC(C)CC(OC)[C@@H](O)[C@H](C)/C=C(\C)C(OC(N)=O)C(OC)/C=C\C=C(/C)C(=O)NC(=CC1=O)C2=O (stereo not given in full) ?
Result: inactive

###

test system: SK-OV-3 ovarian; test: NCI tumour cell line growth inhibition, 48 h
Each item that follows carries a reported TGI.

>  <compound>
CN1CCN([C@H]2C[C@H]3[C@@H]4CC=C5C[C@@H](O)CC[C@]5(C)[C@H]4CC[C@]3(C)C2=O)CC1

>  <target-of-assay>
SK-OV-3 ovarian

>  <TGI>
> 100 µM

$$$$
>  <compound>
CCOC(=O)C1=C(C)NC(=S)NC1c1ccccc1 (stereo not given)

>  <target-of-assay>
SK-OV-3 ovarian

>  <TGI>
> 100 µM

$$$$
>  <compound>
N.N.N.N.O=[N+]([O-])[O-].[Co+3].[N-]=[N+]=[N-].[N-]=[N+]=[N-]

>  <target-of-assay>
SK-OV-3 ovarian

>  <TGI>
> 100 µM

$$$$
>  <compound>
COc1cc(/C=C2\S/C(=N/Nc3nc(-c4ccc(Br)cc4)cs3)NC2=O)cc(OC)c1OC

>  <target-of-assay>
SK-OV-3 ovarian

>  <TGI>
34.7 µM

$$$$

Please find the next compound below.
Per the records, this compound ( CNC(=O)OCC1=C(COC(=O)NC)C(C)N(c2ccc(OC)cc2)C1 (stereo not given) ) has TGI equal to > 100 µM

###

Each item that follows carries a reported TGI.
test system: OVCAR-8 ovarian; experiment: NCI tumour cell line growth inhibition, 48 h

The following molecules have reported results that may help.
>  <molecule>
CSc1nc2c(c(=O)[nH]1)N=C1c3ccccc3C(=O)C1C(c1ccccc1)N2 (stereo not given)

>  <observed-value>
> 100 µM

$$$$
>  <molecule>
Cc1nc2ccccc2c(=O)n1-c1ccccc1I

>  <observed-value>
> 100 µM

$$$$
>  <molecule>
CC1(C)CCc2c(c3c(c4c(=O)c(O)c(-c5ccc(O)cc5)oc24)OC(C)(C)CC3)O1

>  <observed-value>
> 100 µM

$$$$

Per the records, this molecule ( Clc1ccc2c(NCCCCNc3nc(N4CCCCC4)nc4ccccc34)ccnc2c1 ) has TGI equal to 10.4 µM

Per the records, this molecule ( COc1ccc(C(=O)C(C(=O)CCC(=O)Nc2ccc(C)c(C)c2)c2ccc(OC)cc2)cc1 (stereo not given) ) has TGI equal to > 100 µM
